Target: T1, human RANK-L (human, UniProt O14788 140-317, limits assumed)
T1 construct: Soluble protein, used coated, biotinylated or labelled in ELISA, AlphaScreen, FMAT and Biacore; also called hRANK-L; soluble human RANK-L
T1 sequence (looked up): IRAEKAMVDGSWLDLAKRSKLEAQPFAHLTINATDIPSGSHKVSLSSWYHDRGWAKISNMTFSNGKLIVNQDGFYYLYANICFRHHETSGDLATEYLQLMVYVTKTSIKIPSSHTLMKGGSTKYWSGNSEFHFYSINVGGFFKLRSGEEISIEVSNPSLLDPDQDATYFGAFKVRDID
Assay: SPR Biacore 3000, hRANK-L on CM5, 100 nM Nanobody; only indicative (one concentration)
parameter_measured: Kd (nM)

(P) RANKL18hum7 (VHH) VHH: EVQLVESGGGLVQPGGSLRLSCAASGRTFSRSAMGWFRQAPGKGREFVGFITGSGGTTYYADSVKGRFTISRDNAQNPLYLQMNSLRPEDTAVYYCAVYRRTYISSTYSESSEYDYWGQGTLVTVSS
(Q) RANKL18hum5 (VHH) VHH: EVQLVESGGGLVQPGGSLRLSCAASGRTFSRSAMGWFRQAPGKGREFVGFITGSGGTTYYGESVKGRFTISRDNAQNPVYLQMNSLRPEDTAVYYCAVYRRTYISSTYSESSEYDYWGQGTLVTVSS
When the recorded Kd values are compared, which is smaller: that of P or that of Q ? Write down the label attached to your selection.
Q
